# experimental.system: T1, human GIP receptor (human, UniProt P48546 22-466)
# T1 sequence (looked up): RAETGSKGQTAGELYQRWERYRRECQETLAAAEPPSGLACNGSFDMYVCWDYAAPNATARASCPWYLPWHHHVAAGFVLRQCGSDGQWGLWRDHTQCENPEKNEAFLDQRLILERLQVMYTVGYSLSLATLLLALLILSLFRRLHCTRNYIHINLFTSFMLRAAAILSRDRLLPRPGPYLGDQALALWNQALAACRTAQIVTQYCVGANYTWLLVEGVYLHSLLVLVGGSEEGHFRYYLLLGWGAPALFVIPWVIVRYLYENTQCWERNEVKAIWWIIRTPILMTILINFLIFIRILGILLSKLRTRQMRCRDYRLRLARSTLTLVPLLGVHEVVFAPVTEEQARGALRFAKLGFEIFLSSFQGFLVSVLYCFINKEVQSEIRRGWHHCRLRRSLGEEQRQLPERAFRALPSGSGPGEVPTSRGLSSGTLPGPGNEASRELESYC
# procedure.details: cell-based or functional assay
readout: cAMP EC50 (1.0% HSA) (nM)

INSERT INTO results (binder, val) VALUES
  ('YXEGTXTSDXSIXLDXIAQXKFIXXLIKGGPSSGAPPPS (Y-Aib-EGT-αMeF(2F)-TSD-2Nal-SI-αMeL-LD-Orn-IAQ-Aib-K((2-[2-(2-Amino-ethoxy)-ethoxy]-acetyl)2-(γ-Glu)-CO-(CH2)12-CO2H)Fl-(D-Glu)-αMeY-LIK((2-[2-(2-Amino-ethoxy)-ethoxy]-acetyl)2-(γ-Glu)-CO-(CH2)12-CO2H)GGPSSGAPPPS-NH2) [Example 253]', 21.7),
  ('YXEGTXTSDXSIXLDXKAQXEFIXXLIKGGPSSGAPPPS (Y-Aib-EGT-αMeF(2F)-TSD-hTyr-SI-αMeL-LD-Orn-K((2-[2-(2-Amino-ethoxy)-ethoxy]-acetyl)2-(γ-Glu)-(10-(4-carboxyphenoxy)decanoyl))AQ-Aib-EFI-(D-Glu)-αMeY-LIK((2-[2-(2-Amino-ethoxy)-ethoxy]-acetyl)2-(γ-Glu)-(10-(4-carboxyphenoxy)decanoyl))GGPSSGAPPPS-NH2) [Example 327]', 0.751),
  ('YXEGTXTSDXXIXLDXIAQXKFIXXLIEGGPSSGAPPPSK (Y-Aib-EGT-αMeF(2F)-TSD-4Pal-Aib-I-αMeL-LD-Orn-IAQ-Aib-K(2-[2-(2-Amino-ethoxy)-ethoxy]-acetyl)2-(γ-Glu)-(11-(4-carboxyphenoxy)undecanoyl)FI-(D-Glu)-αMeY-LIEGGPSSGAPPPSK((2-[2-(2-Amino-ethoxy)-ethoxy]-acetyl)2-(γ-Glu)-(11-(4-carboxyphenoxy)undecanoyl)-NH2)) [Example 242]', 11);
